# key: entry, value: inhibition of SARS-CoV-2 cytopathic effect
system: Vero E6 infected with SARS-CoV-2; test: inhibition of SARS-CoV-2 cytopathic effect; higher = more antiviral protection, active = above 15; conditions: 8.33 nM; 48 h
Where a name gives a salt, the structure may show the parent alone.
observed.property: inhibition of SARS-CoV-2 cytopathic effect (%)

compound="Cc1ccc(C23CNCC2C3)cc1 (stereo unspecified) [bicifadine]" reported_measurement=-0.49
compound=O=C(Nc1ccccc1-c1cn2c(CN3CCNCC3)csc2n1)c1cnc2ccccc2n1 reported_measurement=1.58
compound="COc1cc2c(=O)c(-c3ccc(O)cc3)coc2cc1O [glycitein]" reported_measurement=-0.34
compound="Cc1nnc(C(C)C)n1C1C[C@H]2CC[C@@H](C1)N2CC[C@H](NC(=O)C1CCC(F)(F)CC1)c1ccccc1 (stereo in doubt) [maraviroc]" reported_measurement=-1.45
compound="CCCN(CCC)[C@H]1CCc2ccc(O)cc2C1 [7-hydroxy-DPAT]" reported_measurement=2.39
compound="O=c1[nH]c(=O)n([C@H]2C[C@H](O)[C@@H](CO)O2)cc1Br [broxuridine]" reported_measurement=1.06
compound=Cn1cc(C(=O)OCC2CCN(CCNS(C)(=O)=O)CC2)c2ccccc21 reported_measurement=4.63
compound=Cc1cc(Cn2cnc3c2C[C@@H](C(=O)O)N(C(=O)C(c2ccccc2)c2ccccc2)C3)ccc1N(C)C reported_measurement=-1.75
compound=CC1(C)CC(=O)c2c(C(F)(F)F)nn(-c3ccc(C(N)=O)c(N[C@H]4CC[C@H](O)CC4)c3)c2C1 reported_measurement=1.97
compound=CC(=O)N[C@@H](Cc1c[nH]c2ccccc12)C(=O)OCc1cc(C(F)(F)F)cc(C(F)(F)F)c1 reported_measurement=1.3
compound="CCOc1ccccc1-n1c(C(C)N2CCN(C(=O)COc3ccc(Cl)cc3)CC2)nc2ccccc2c1=O (stereo unspecified) [erastin]" reported_measurement=-0.63
compound=CC(C)n1c(=O)n(C(=O)N[C@H]2C[C@H]3CC[C@@H](C2)N3C)c2ccccc21 reported_measurement=1.63
compound="C=CC(=O)N1CCN(C(=O)CNc2cc(I)c(Cl)cc2O)CC1 [K-Ras(G12C)-inhibitor-12]" reported_measurement=2.32
compound="CCN(C)C(=O)Oc1cccc([C@H](C)N(C)C)c1 [rivastigmine]" reported_measurement=0.73
compound=COC1(C[S@@+]([O-])c2ccccc2)CCN(CCc2c[nH]c3ccc(F)cc23)CC1 reported_measurement=4.84
compound="CCSC(=N)N [EIT-hydrobromide]" reported_measurement=-1.2
compound="COCCOc1ccc(N2CCN(CCn3ncc4c3nc(N)n3nc(-c5ccco5)nc43)CC2)cc1 [preladenant]" reported_measurement=0.62
compound="O=C1NC(=S)NC(=O)C1C(=O)Nc1ccccc1 [merbarone]" reported_measurement=-1.86
compound="O=c1[nH]c2ccccc2c(=O)n1CCCN1CCN(c2ccccc2)CC1 [pelanserin]" reported_measurement=1.75
compound="OC(CCCN1CCCCC1)(c1ccccc1)c1ccccc1 [diphenidol]" reported_measurement=-3.34
compound="CN[C@@H]1[C@@H](O[C@H]2O[C@H](CO)[C@@H](N)[C@H](O)[C@H]2O)O[C@H]2C[C@@H](N)[C@@H](O[C@H]3[C@H](O)[C@@H](O)[C@H](N)C[C@@H]3N)O[C@@H]2[C@@H]1O [apramycin]" reported_measurement=-2.53
compound="Cn1nnc2c(C(N)=O)ncn2c1=O [temozolomide]" reported_measurement=-1.46
compound="C#C[C@]1(O)CC[C@H]2[C@@H]3CCc4cc(OC5CCCC5)ccc4[C@H]3CC[C@@]21C [quinestrol]" reported_measurement=-1.33
compound=C/C(=N\c1ccccc1N)c1c(C)cc(=O)n(O)c1O reported_measurement=-2.18
compound="O=C(NCc1ccc(F)cc1)N1CCN2C(=O)OC(c3ccccc3)(c3ccccc3)[C@@H]2C1 (racemic)" reported_measurement=1.29
compound="COC(=O)C[C@](O)(CCCC(C)(C)O)C(=O)O[C@@H]1C(OC)=C[C@]23CCCN2CCc2cc4c(cc2[C@H]13)OCO4 [homoharringtonine]" reported_measurement=2.85
compound="CC(C)c1ccc2c(c1)CC[C@H]1[C@](C)(CN)CCC[C@]21C [lylamine]" reported_measurement=0.4
compound="NS(=O)(=O)Cc1noc2ccccc12 [zonisamide]" reported_measurement=-3.86
compound=C[C@H](C[C@H](N)C(=O)O)C(=O)O reported_measurement=-0.93
compound="O=c1c2ccccc2[se]n1-c1ccccc1 [Ebselen]" reported_measurement=0.73
compound="NS(=O)(=O)c1ccc(C(=O)O)cc1 [carzenide]" reported_measurement=-0.09
compound="CCc1cc2c(cc1CC)CC(NC[C@H](O)c1ccc(O)c3[nH]c(=O)ccc13)C2 [indacaterol]" reported_measurement=-0.7
compound="Nc1ccc(C(=O)O)cc1 [potassium-p-aminobenzoate]" reported_measurement=-2.38
compound="N=C(NCc1ccc(Cl)cc1)SCCCc1c[nH]cn1 [clobenpropit]" reported_measurement=1.91
compound="O=c1cc(-c2ccccc2)oc2cc(O)c(O)c(O)c12 [baicalein]" reported_measurement=3.69
compound="CCc1cc(/C(C)=N/OCc2ccc(C3CCCCC3)c(C(F)(F)F)c2)ccc1CN1CC(C(=O)O)C1 [siponimod]" reported_measurement=-1.67

Numbers sourced from the supplement of paper PMC13380429.
